Assay: Bidirectional Caco-2 permeability assay
Assay type: in vitro ADME
Settings: human, Caco-2
Description: The bidirectional permeability of compounds across the Caco-2 cell monolayer was assessed. The Caco-2 model is a widely used in vitro model for small intestinal absorption and potential for efflux. Cell culture. Caco-2 cells were grown in DMEM supplemented with 10% fetal bovine serum (FBS), 1% Penicillin-Streptomycin and 1% MEMNEAA. […] Sample analysis. The concentrations of test compounds and control compounds in Caco-2 cells were quantitatively determined by LC/MS/MS method after protein precipitation. […]
Documented Papp B→A at 90 min across a set of compounds
Endpoint: Papp B→A at 90 min (×10⁻⁶ cm/s)

# Compound, Observed Value
measured = [
    ("CCOC(C)(C)C(=O)Nc1ncnn2c([C@]3(C#N)O[C@H](COC(=O)CC4CCCCCC4)[C@@H](OC(=O)[C@@H](N)C(C)(C)C)[C@H]3O)ccc12 [Compound 67]", 2.54),
    ("CCC(CC)C(=O)Nc1ncnn2c([C@]3(C#N)O[C@H](COC(=O)CC4CCCC4)[C@@H](OC(=O)[C@@H](N)C(C)(C)C)[C@H]3O)ccc12 [Compound 56]", 7.57),
    ("CCCCC(=O)Nc1ncnn2c([C@]3(C#N)O[C@H](COC(=O)CC4CCCC4)[C@@H](OC(=O)[C@@H](N)C(C)(C)C)[C@H]3O)ccc12 [Compound 54]", 5.47),
    ("CC(=O)OCOC(=O)Nc1ncnn2c([C@]3(C#N)O[C@H](COC(=O)[C@@H](N)C(C)(C)C)[C@@H](OC(=O)CC4CCCCC4)[C@H]3O)ccc12 [Compound 36]", 1.15),
    ("CCCCOC(C)(C)C(=O)Nc1ncnn2c([C@]3(C#N)O[C@H](COC(=O)CC4CCCCC4)[C@@H](OC(=O)[C@H](N)C(C)(C)C)[C@H]3O)ccc12 [Compound 73]", 0.53),
]
